Property: Relative Potency against CtHtrA; scope: individual compounds
STUDY TARGET: CtHtrA (Chlamydia trachomatis serovar D, UniProt P18584)
Construct: made in house; host or cells: E. coli BL21(DE3), pET22b
Sequence (P18584 17-497): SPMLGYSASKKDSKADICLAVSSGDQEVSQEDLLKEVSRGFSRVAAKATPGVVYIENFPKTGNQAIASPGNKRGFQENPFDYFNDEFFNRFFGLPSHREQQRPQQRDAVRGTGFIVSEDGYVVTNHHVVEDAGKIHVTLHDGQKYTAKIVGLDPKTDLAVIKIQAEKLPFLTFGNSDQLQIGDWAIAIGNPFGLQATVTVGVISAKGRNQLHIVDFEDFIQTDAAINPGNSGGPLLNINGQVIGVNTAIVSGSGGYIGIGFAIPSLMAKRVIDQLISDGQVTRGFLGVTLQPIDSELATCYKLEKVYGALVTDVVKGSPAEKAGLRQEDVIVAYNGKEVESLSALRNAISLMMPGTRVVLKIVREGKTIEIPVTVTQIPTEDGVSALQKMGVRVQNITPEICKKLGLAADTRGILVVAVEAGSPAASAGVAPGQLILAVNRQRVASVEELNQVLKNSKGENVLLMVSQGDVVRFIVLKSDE
ASSAY PROCEDURE: CtHtrA protease inhibition assay
Assay type: biochemical
CONDITION SUMMARY: [IC50 of control]/[IC50 test compound]; control JO146
Write no unit; give the number alone.

# example entries with known answers
[
  {
    "COMPOUND": "CCOc1oc(=O)c2ccccc2c1Cl",
    "MEASUREMENT NAME": "Relative Potency against CtHtrA",
    "MEASURED": 3.73
  },
  {
    "COMPOUND": "CC(C)Oc1oc(=O)c2ccccc2c1Cl",
    "MEASUREMENT NAME": "Relative Potency against CtHtrA",
    "MEASURED": 5.32
  }
]

Ask: Would you mind telling me what Relative Potency against CtHtrA value was observed for CCC(C)Oc1oc(=O)c2ccccc2c1Cl (racemic) [Compound 2g, (±)-3-sec-Butoxy-4-chloroisocoumarin] ?
Reply: 6.58

Ask: Would you mind telling me what Relative Potency against CtHtrA value was observed for CC(C)COc1oc(=O)c2ccccc2c1Cl ?
Reply: 1.50

Ask: Would you mind telling me what Relative Potency against CtHtrA value was observed for CCCOc1oc(=O)c2ccccc2c1Cl ?
Reply: 2.23

Ask: Would you mind telling me what Relative Potency against CtHtrA value was observed for CCCCOc1oc(=O)c2ccccc2c1Cl ?
Reply: 1.57

Ask: Would you mind telling me what Relative Potency against CtHtrA value was observed for COc1oc(=O)c2ccccc2c1Cl ?
Reply: 2.33

Ask: Would you mind telling me what Relative Potency against CtHtrA value was observed for CC(C)[C@H](NC(=O)OC(C)(C)C)C(=O)N1CCCC1C(=O)N[C@@H](C(C)C)P(=O)(Oc1ccccc1)Oc1ccccc1 (some centres unmarked) [JO146, reference compound] ?
Reply: 1.00

----------
Property: Relative Selectivity; scope: individual compounds
STUDY TARGET: CtHtrA (Chlamydia trachomatis serovar D)
Construct: made in house; host or cells: E. coli BL21(DE3), pET22b
ASSAY PROCEDURE: CtHtrA protease inhibition assay
Format: biochemical
CONDITION SUMMARY: (relative CtHtrA potency)/(relative HLE potency)
Write no unit; give the number alone.

Ask: Give CtHtrA (Chlamydia trachomatis serovar D) Relative Selectivity for CCOc1oc(=O)c2ccccc2c1Cl
Reply: 56.4

Ask: Give CtHtrA (Chlamydia trachomatis serovar D) Relative Selectivity for CCC(C)Oc1oc(=O)c2ccccc2c1Cl (racemic) [Compound 2g, (±)-3-sec-Butoxy-4-chloroisocoumarin]
Reply: 14.6

Ask: Give CtHtrA (Chlamydia trachomatis serovar D) Relative Selectivity for CC(C)[C@H](NC(=O)OC(C)(C)C)C(=O)N1CCCC1C(=O)N[C@@H](C(C)C)P(=O)(Oc1ccccc1)Oc1ccccc1 (stereo partly shown) [JO146, reference compound]
Reply: 1.00

Ask: Give CtHtrA (Chlamydia trachomatis serovar D) Relative Selectivity for CCCOc1oc(=O)c2ccccc2c1Cl
Reply: 6.92

----------
STUDY TARGET: CtHtrA (Chlamydia trachomatis serovar D, UniProt P18584)
Construct: made in house; host or cells: E. coli BL21(DE3), pET22b
ASSAY PROCEDURE: CtHtrA protease inhibition assay
Format: biochemical
CONDITION SUMMARY: IC50 against CtHtrA, Table S2, Batch 1; control JO146
Property: IC50; scope: individual compounds
Give the quantity in µM, number only.

# example entries with known answers
[
  {
    "COMPOUND": "CC(C)[C@H](NC(=O)OC(C)(C)C)C(=O)N1CCCC1C(=O)N[C@@H](C(C)C)P(=O)(Oc1ccccc1)Oc1ccccc1 (some centres unmarked) [JO146, reference compound]",
    "IC50 / µM": 71.5
  },
  {
    "COMPOUND": "CCCCOc1oc(=O)c2ccccc2c1Cl",
    "IC50 / µM": 45.5
  },
  {
    "COMPOUND": "CCOc1oc(=O)c2ccccc2c1Cl",
    "IC50 / µM": 19.1
  }
]

Ask: Would you mind telling me what IC50 value was observed for CCCOc1oc(=O)c2ccccc2c1Cl ?
Reply: 32

Ask: Would you mind telling me what IC50 value was observed for COc1oc(=O)c2ccccc2c1Cl ?
Reply: 30.6
